// provenance: patent US11091749B2

# System Under Test: DRB1*1101 (Homo sapiens, UniProt P01903+P01911, A100R/A169T/A87E/I96F/K41T/L162R/M171V/P40S/Q125H/Q178H/Q39Y/Q99D/R42S/S66Y/T262R/V115G/W38E)
# Method Summary: MHC II competition binding assay
# Measurement Parameters: DRB1*1101; read-out: IC50
pIC50: −log10 of the molar value. Where no end group is shown, it is not given here.
Property: pIC50; scope: individual sequences

Take a look at these entries with their results.
Sequence Chain: HLHFQRMVNSFSNPTAQ [Design C5WT]
pIC50: > 8.00

Sequence Chain: DHVKAGQQIGWSGSTGY [Peptide 93_99]
pIC50: < 3.60

[ask] May I ask what pIC50 has been recorded for HLHFQRMVGSFSNPTAQ [Peptide N121G] ?
[reply] 5.19

[ask] Try the sequence DHVEAGQQIGWSGSTGY [Peptide 939599]
[reply] < 3.60
